All figures here come from ChEMBL document CHEMBL4177725.

assay: MRT (0 to infinity) in ICR mouse at 10 mg/kg, po; type: ADME, organism-based; conditions: in vivo
Would you kindly list MRT inf for each of these compounds?
Hi! Could you send only the number? It should be in h, unit omitted.

// query Request the reported MRT inf associated with "Nc1cc(-c2cccc(-n3ccc4cc(C5CC5)cc(F)c4c3=O)c2CO)nc(Nc2cnn(C3CC3)c2)n1"
// result 2.24

// query Looking for the measured MRT inf of "Cn1cc(Nc2nc(N)cc(-c3cccc(-n4ccc5cc(C6CC6)cc(F)c5c4=O)c3CO)n2)cn1" , can you help?
// result 1.91

###

assay: Clearance in ICR mouse at 2 mg/kg, iv; format: ADME, organism-based; details: in vivo
parameter: clearance (mL/min/kg)
Output spec: scalar in mL/min/kg, unitless text.

// query Entry under review: "Nc1cc(-c2cccc(-n3ccc4cc(C5CC5)cc(F)c4c3=O)c2CO)nc(Nc2cnn(C3CC3)c2)n1" . Reported clearance?
// result 10.5

// query What clearance value was documented for this compound, "Cn1cc(Nc2nc(N)cc(-c3cccc(-n4ccc5cc(C6CC6)cc(F)c5c4=O)c3CO)n2)cn1" ?
// result 9.67

###

target: UniProt Q06187; assay: Inhibition of His-tagged lambda phosphatase pre-treated N-terminal DYKDDDDK tagged and biotinylated BTK unactivated form (unknown origin) using FITC-labeled Srctide substrate and ATP by microfluidic mobility shift assay
Sequence (Q06187 whole entry): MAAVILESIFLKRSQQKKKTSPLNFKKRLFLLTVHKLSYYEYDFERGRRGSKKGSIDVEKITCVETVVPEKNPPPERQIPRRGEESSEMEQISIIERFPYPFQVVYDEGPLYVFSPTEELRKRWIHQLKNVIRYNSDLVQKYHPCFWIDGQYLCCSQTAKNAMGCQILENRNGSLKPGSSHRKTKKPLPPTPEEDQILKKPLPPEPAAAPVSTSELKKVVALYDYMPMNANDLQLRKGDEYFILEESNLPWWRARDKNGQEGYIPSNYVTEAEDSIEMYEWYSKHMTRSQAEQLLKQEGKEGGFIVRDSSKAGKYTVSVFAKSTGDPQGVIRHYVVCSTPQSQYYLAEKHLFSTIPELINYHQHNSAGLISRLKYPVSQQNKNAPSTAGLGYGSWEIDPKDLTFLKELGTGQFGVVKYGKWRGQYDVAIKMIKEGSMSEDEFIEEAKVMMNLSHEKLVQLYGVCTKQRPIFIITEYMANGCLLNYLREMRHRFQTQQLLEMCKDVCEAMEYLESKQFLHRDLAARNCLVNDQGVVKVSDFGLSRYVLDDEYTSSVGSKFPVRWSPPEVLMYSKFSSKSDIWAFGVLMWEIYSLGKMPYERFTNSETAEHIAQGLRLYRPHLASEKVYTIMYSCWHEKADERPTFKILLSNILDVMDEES
parameter: IC50 (nM)
Your answer should be a plain number; it is taken to be in nM.

// query Could you share which IC50 value was measured for "Nc1cc(-c2cccc(-n3ccc4cc(C5CC5)cc(F)c4c3=O)c2CO)nc(Nc2cnn(C3(CO)CC3)c2)n1" ?
// result 0.6

// query So what's the measured IC50 for this one? "COc1ccc(Nc2nc(N)cc(-c3cccc(-n4ccc5cc(C6CC6)cc(F)c5c4=O)c3CO)n2)cc1"
// result 2.5

// query Bench note: what IC50 did "Cn1ccc(Nc2nc(N)cc(-c3cccc(-n4ccc5cc(C6CC6)cc(F)c5c4=O)c3CO)n2)c1" show?
// result 17

// query Reported IC50 for "Nc1cc(-c2cccc(-n3ccc4cc(C5CC5)cc(F)c4c3=O)c2CO)nc(Nc2ccc(CN3CCOCC3)cc2)n1" : what is it?
// result 309

###

molecular target: UniProt Q06187; assay: Inhibition of His-tagged lambda phosphatase pre-treated N-terminal DYKDDDDK tagged and biotinylated BTK unactivated form (unknown origin) using FITC-labeled Srctide substrate and ATP by microfluidic mobility shift assay
parameter: pIC50
Kindly note that pIC50 refers to -log10 of the concentration in mol/L and answer with the value alone.

// query May I ask what pIC50 has been recorded for "Cn1cc(Nc2nc(N)cc(-c3cccc(-n4ccc5cc(C6CC6)cc(F)c5c4=O)c3CO)n2)cn1" ?
// result 9.40

// query Sample "CCn1cc(Nc2nc(N)cc(-c3cccc(-n4ccc5cc(C6CC6)cc(F)c5c4=O)c3CO)n2)cn1" — what was its pIC50?
// result 9.40

// query Form field: reported pIC50 of "Cn1ccc(Nc2nc(N)cc(-c3cccc(-n4ccc5cc(C6CC6)cc(F)c5c4=O)c3CO)n2)n1"
// result 7.86

// query What value of pIC50 has been recorded for this entry: "Nc1cc(-c2cccc(-n3ccc4cc(C5CC5)cc(F)c4c3=O)c2CO)nc(Nc2cnn(CC(F)F)c2)n1"
// result 9.70

// query Would you mind telling me what pIC50 value was observed for "Nc1cc(-c2cccc(-n3ccc4cc(C5CC5)cc(F)c4c3=O)c2CO)nc(Nc2ccc(N3CCOCC3)cc2)n1" ?
// result 9.22

// query What value of pIC50 has been recorded for this entry: "CC(C)n1cc(Nc2nc(N)cc(-c3cccc(-n4ccc5cc(C6CC6)cc(F)c5c4=O)c3CO)n2)cn1"
// result 9.70

// query Can you look up the measured pIC50 of "CC(C)(C)n1cc(Nc2nc(N)cc(-c3cccc(-n4ccc5cc(C6CC6)cc(F)c5c4=O)c3CO)n2)cn1" for me?
// result 9.22

###

biological target: Tyrosine-protein kinase SYK (Homo sapiens, UniProt P43405); test: Inhibition of SYK (unknown origin) using FITC-labeled Blk/Lyntide substrate and ATP by microfluidic mobility shift assay
parameter: IC50 (nM)
A number alone suffices; assume nM.

// query Record lookup: for Tyrosine-protein kinase SYK (Homo sapiens, UniProt P43405), what IC50 belongs to "CC(C)(C)c1ccc(C(=O)Nc2cccc(-c3ccnc(Nc4ccc5cn[nH]c5c4)n3)c2)cc1" ?
// result 360

###

assay: MRT (0 to infinity) in ICR mouse at 2 mg/kg, iv; assay type: ADME, organism-based; details: in vivo
Would you mind telling me the reported MRT inf of each entry?
// units = h; emit number, no label

// query Endpoint output: MRT inf of "Nc1cc(-c2cccc(-n3ccc4cc(C5CC5)cc(F)c4c3=O)c2CO)nc(Nc2cnn(C3CC3)c2)n1" . Value?
// result 1.36

// query What MRT inf value was documented for this compound, "Cn1cc(Nc2nc(N)cc(-c3cccc(-n4ccc5cc(C6CC6)cc(F)c5c4=O)c3CO)n2)cn1" ?
// result 1.13

###

assay: Half life in ICR mouse at 10 mg/kg, po; type: ADME, organism-based; conditions: in vivo
parameter: half-life (min)
I only need the number, in min, no unit after it.

// query Fill in the blank: the reported half-life of "Cn1cc(Nc2nc(N)cc(-c3cccc(-n4ccc5cc(C6CC6)cc(F)c5c4=O)c3CO)n2)cn1" is ____.
// result 57.6

// query Need half-life of "Nc1cc(-c2cccc(-n3ccc4cc(C5CC5)cc(F)c4c3=O)c2CO)nc(Nc2cnn(C3CC3)c2)n1" , thanks.
// result 78.6

###

test: Apparent permeability in human Caco2 cells; format: ADME, cell-based; conditions: Caco-2
For each of the molecules below, state its Papp.
Answer shape: numeric part, then the unit.

// query Entry "CCn1cc(Nc2nc(N)cc(-c3cccc(-n4ccc5cc(C6CC6)cc(F)c5c4=O)c3CO)n2)cn1" has what Papp?
// result 5.4 ×10⁻⁶ cm/s

// query Entry "CC(C)n1cc(Nc2nc(N)cc(-c3cccc(-n4ccc5cc(C6CC6)cc(F)c5c4=O)c3CO)n2)cn1" : reported Papp = ?
// result 3.7 ×10⁻⁶ cm/s

// query Name the recorded Papp for "Nc1cc(-c2cccc(-n3ccc4cc(C5CC5)cc(F)c4c3=O)c2CO)nc(Nc2cnn(C3(CO)CC3)c2)n1" .
// result 0.7 ×10⁻⁶ cm/s

// query Would you mind telling me what Papp value was observed for "Nc1cc(-c2cccc(-n3ccc4cc(C5CC5)cc(F)c4c3=O)c2CO)nc(Nc2cnn(CC3CC3)c2)n1" ?
// result 6.1 ×10⁻⁶ cm/s

// query Endpoint output: Papp of "Nc1cc(-c2cccc(-n3ccc4cc(C5CC5)cc(F)c4c3=O)c2CO)nc(Nc2cnn(CC(F)F)c2)n1" . Value?
// result 3.1 ×10⁻⁶ cm/s

// query What Papp value was documented for this molecule, "Nc1cc(-c2cccc(-n3ccc4cc(C5CC5)cc(F)c4c3=O)c2CO)nc(Nc2cnn(C3CC3)c2)n1" ?
// result 6.9 ×10⁻⁶ cm/s

// query Return reported Papp; argument: "CC(C)(C)n1cc(Nc2nc(N)cc(-c3cccc(-n4ccc5cc(C6CC6)cc(F)c5c4=O)c3CO)n2)cn1"
// result 5.7 ×10⁻⁶ cm/s

// query Give its Papp value. Item: "Cn1cc(Nc2nc(N)cc(-c3cccc(-n4ccc5cc(C6CC6)cc(F)c5c4=O)c3CO)n2)cn1"
// result 6.3 ×10⁻⁶ cm/s

###

assay: AUC (0 to infinity) in ICR mouse at 2 mg/kg, iv; type: ADME, organism-based; design: dose 2 mg/kg, route intravenous, time infinity; conditions: in vivo
parameter: AUC(0-inf) (ng·h/mL)
Give the quantity in ng·h/mL, number only.

// query # get_value(readout='AUC(0-inf)', item= "Cn1cc(Nc2nc(N)cc(-c3cccc(-n4ccc5cc(C6CC6)cc(F)c5c4=O)c3CO)n2)cn1" )
// result 3480

// query Any idea what AUC(0-inf) was measured for "Nc1cc(-c2cccc(-n3ccc4cc(C5CC5)cc(F)c4c3=O)c2CO)nc(Nc2cnn(C3CC3)c2)n1" ?
// result 3170

###

Provide the recorded solubility kinetic at 1 h for the entries that follow.
assay: Kinetic solubility in phosphate buffer at pH 7.4 incubated for 1 hr at room temperature by LC-UV or LC-MS/MS method; assay type: physicochemical; conditions: read-out: Kinetic_solubility
Express it in µM; write the number only.

// query Report solubility kinetic at 1 h for "Nc1cc(-c2cccc(-n3ccc4cc(C5CC5)cc(F)c4c3=O)c2CO)nc(Nc2cnn(C3CC3)c2)n1" please.
// result 9.8

// query Looking for the measured solubility kinetic at 1 h of "Nc1cc(-c2cccc(-n3ccc4cc(C5CC5)cc(F)c4c3=O)c2CO)nc(Nc2cnn(CC3CC3)c2)n1" , can you help?
// result 6.3

// query // solubility kinetic at 1 h lookup, key: "Cn1cc(Nc2nc(N)cc(-c3cccc(-n4ccc5cc(C6CC6)cc(F)c5c4=O)c3CO)n2)cn1"
// result 18

// query solubility kinetic at 1 h for "Nc1cc(-c2cccc(-n3ccc4cc(C5CC5)cc(F)c4c3=O)c2CO)nc(Nc2cnn(CC(F)F)c2)n1" ?
// result 2.1

// query Any idea what its solubility kinetic at 1 h is? The compound is "CC(C)n1cc(Nc2nc(N)cc(-c3cccc(-n4ccc5cc(C6CC6)cc(F)c5c4=O)c3CO)n2)cn1"
// result 4
